The entries below come with measured Kd values attached.
Target: T1, GFP-9S library array, motif 4 ND N98S;D124H (synthetic construct, N98S;D124H)
T1 chain: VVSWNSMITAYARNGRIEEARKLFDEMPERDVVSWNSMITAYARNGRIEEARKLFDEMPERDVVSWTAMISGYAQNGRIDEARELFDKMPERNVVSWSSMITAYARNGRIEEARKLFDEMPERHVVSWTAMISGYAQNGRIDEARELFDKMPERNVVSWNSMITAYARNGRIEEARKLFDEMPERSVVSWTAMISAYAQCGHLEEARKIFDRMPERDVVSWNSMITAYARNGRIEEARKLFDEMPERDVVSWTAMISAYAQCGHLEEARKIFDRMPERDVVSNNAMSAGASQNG
Test: high-throughput RNA pulldown from lysate on Ni-NTA beads; HRP: 50 mM Tris pH 8, 150 mM NaCl, 1 mM beta-mercaptoethanol, 50 ug/ml BSA, 3 ug/ml yeast RNA, 0.5% heparin; ITC and FP: Tris pH 8, 200 mM KCl, 5% glycerol; MST: 50 mM Tris pH 8, 200 mM NaCl, 1 mM DTT, BSA, heparin, 0.05% Tween 20
Settings: tags: N-terminal His-eGFP; label: 5' IRDye 800CW
Response body: numeric value in nM, unit text excluded.

| binder | Kd [nM] |
| --- | --- |
| AUUAUACGUGA (ssRNA) [IR-rpoA-U] | 101 |

Moving on to the next binder.
Prompt: Look up and report measured Kd for this entry: AUUAAACGUGA (ssRNA) [IR-rpoA-A]
Completion: 53.5
